target: HLA-A*02:01 (Homo sapiens, UniProt P04439, D140Y/D185E/D98H/E176V/E277Q/G131W/G231S/I119V/I121R/I166T/I218V/L300P/L318F/N151K/N90K/P208A/P217A/Q86G/Q94H/R138H/R169H/T345S); test: MHC binding assay (UV-ligand exchange, beta2m ELISA, peptide exchange yield); settings: binding of HLA-class I restricted peptides to HLA-A*02:01, ranged by peptide exchange yield (UV-ligand exchange, β2m ELISA)
assayEndpoint: Peptide exchange

> print(dat)
                                  substance     assayendpoint      recordedresult
1  334 (TLTKVLVAL; listed as Homo sapiens) [compound 334]  Peptide exchange  ″+++″ (≥50% = +++)
2  210 (LLLNAVLTV; listed as Homo sapiens) [compound 210]  Peptide exchange    ″++″ (≥20% = ++)
3  204 (KIAENVEEV; listed as Homo sapiens) [compound 204]  Peptide exchange    ″++″ (≥20% = ++)
4  388 (SLTIDGIRYV; listed as Homo sapiens) [compound 388]  Peptide exchange  ″+++″ (≥50% = +++)

---

target: HLA-A*02:01 (Homo sapiens, UniProt P04439, D140Y/D185E/D98H/E176V/E277Q/G131W/G231S/I119V/I121R/I166T/I218V/L300P/L318F/N151K/N90K/P208A/P217A/Q86G/Q94H/R138H/R169H/T345S); assay: MHC binding assay (UV-ligand exchange, beta2m ELISA, peptide exchange yield); details: binding of HLA-class I restricted peptides to HLA-A*02:01, ranged by peptide exchange yield (UV-ligand exchange, β2m ELISA)
assayEndpoint: Peptide exchange

> print(dat)
                                  substance     assayendpoint      recordedresult
1  586 (KLKPGDLVGV; listed as Homo sapiens) [compound 586]  Peptide exchange  ″+++″ (≥50% = +++)
2  614 (LLLPDQPPYHL; listed as Homo sapiens) [compound 614]  Peptide exchange  ″+++″ (≥50% = +++)
3  124 (ALYETELADA; listed as Homo sapiens) [compound 124]  Peptide exchange    ″++″ (≥20% = ++)
4  454 (KLPPPPPQA; listed as Homo sapiens) [compound 454]  Peptide exchange  ″+++″ (≥50% = +++)
5  357 (SMHDLVLQV; listed as Homo sapiens) [compound 357]  Peptide exchange  ″+++″ (≥50% = +++)
6  538 (LLLAHIIAL; listed as Homo sapiens) [compound 538]  Peptide exchange    ″++″ (≥20% = ++)
7  72 (SLLELDGINL; listed as Homo sapiens) [compound 72]  Peptide exchange  ″+++″ (≥50% = +++)
